# tested-system: UniProt:Q13043
# test-details: In vitro measurement of MST1 inhibition (Z′-Lyte kinase assay)
# Assay type: biochemical
# measurement-conditions: 1 μM ATP; read-out: IC50 (μM) 1 μM ATP
measure: IC50

CN(C1CC1)S(=O)(=O)c1ccc(-c2cnc(N)c(-c3ccc4c(c3)CCNC4=O)n2)cc1F: < 0.01 µM
N#Cc1ccc(-c2cnc(N)c(-c3ccc4c(c3)C3(CC3)CNC4=O)n2)cc1: < 0.05 µM
CC(C)(C#N)c1ccc(-c2cnc(N)c(-c3ccc4c(=O)[nH]ccc4c3)n2)cc1: < 0.05 µM
O=C1NCCc2cc(-c3c[nH]c4ncc(-c5ccc(S(=O)(=O)NC6CC6)cc5)cc34)ccc21: < 0.05 µM
Cc1cc(-c2cnc(N)c(-c3ccc4c(c3)CCNC4=O)c2)ncc1S(=O)(=O)NC1CC1: < 0.01 µM
CC1(C)CNC(=O)c2ccc(-c3nc(-c4ccc(C5(C#N)CC5)cc4)cnc3N)cc21: < 0.01 µM
CC1(C)NC(=O)c2ccc(-c3nc(-c4ccc(S(=O)(=O)NC5CC5)cc4)cnc3N)cc21: < 0.05 µM
Nc1ncc(-c2ccc(C(=O)NCC(F)(F)F)s2)cc1-c1ccc2c(c1)CCNC2=O: < 0.15 µM
CC(C)(C)c1ccc(-c2cnc(N)c(-c3ccc4c(c3)CCNC4=O)n2)cc1: < 0.05 µM
N#CC1(c2ccc(-c3cnc(N)c(-c4ccc5c(c4)NCCNC5=O)n3)cc2)CCOCC1: < 0.05 µM
CCOC(=O)Cc1ccc(-c2cnc(N)c(-c3ccc4c(c3)CCNC4=O)n2)cc1: < 0.15 µM
CCNS(=O)(=O)c1ccc(-c2cnc(N)c(-c3ccc4c(c3)CCC/C4=N\O)c2)cc1: < 0.05 µM
CN(C1CC1)S(=O)(=O)c1ccc(-c2cnc(N)c(-c3ccc4c(c3)CCNC4=O)n2)nc1: < 0.01 µM
Cc1cc(-c2cnc(N)c(-c3ccc4c(c3)C(C)(C)CNC4=O)n2)ccc1S(=O)(=O)NC1CC1: < 0.01 µM
CCN(CC1CC1)S(=O)(=O)c1ccc(-c2cnc(N)c(-c3ccc4c(c3)CCNC4=O)n2)cc1: < 0.01 µM
CN(C1CC1)S(=O)(=O)c1ccc(-c2cnc(N)c(-c3ccc4c(O)ncc(Br)c4c3)n2)cc1: < 0.01 µM
CCCN(C)S(=O)(=O)c1ccc(-c2cnc(N)c(-c3ccc4c(c3)CCNC4=O)n2)cc1Cl: < 0.01 µM
C[C@H]1CNc2cc(-c3nc(-c4ccc(S(=O)(=O)N(C)C5CC5)cc4)cnc3N)ccc2C(=O)N1: < 0.01 µM
[2H]C1([2H])CNC(=O)c2ccc(-c3nc(-c4ccc(S(=O)(=O)NC5CC5)cc4)cnc3N)cc21: < 0.01 µM
CCNS(=O)(=O)c1ccc(-c2cnc(N)c(-c3ccc4c(O)ncnc4c3)c2)cc1: < 0.05 µM
N#CCOc1ccc(-c2cnc(N)c(-c3ccc4c(c3)CCNC4=O)n2)cc1: < 0.15 µM
CC(=O)N1CC(C)(C)c2cc(-c3nc(-c4ccc(S(=O)(=O)N(C)C5CC5)cc4)cnc3N)ccc21: < 0.05 µM
N#CC1(c2ccc(-c3cnc(N)c(-c4ccc5c(c4)C4(CC4)NC5=O)n3)cc2)CCOCC1: < 0.05 µM
CC(C)(C#N)c1ccc(-c2cnc(N)c(-c3ccc4c(c3)CCNC4=O)c2)cn1: < 0.05 µM
Nc1ncc(-c2ccc(F)cc2)nc1-c1ccc2c(c1)C1(CC1)CNC2=O: < 0.15 µM
CCN(C)S(=O)(=O)c1ccc(-c2cnc(N)c(-c3ccc4c(O)nccc4c3)n2)cc1: < 0.01 µM
C=CCN(C)S(=O)(=O)c1ccc(-c2cnc(N)c(-c3ccc4c(c3)CCNC4=O)c2)cc1: < 0.01 µM
CCN(C)S(=O)(=O)c1ccc(-c2cnc(N)c(-c3ccc4c(c3)CCNC4=O)c2)s1: < 0.05 µM
CN(C1CC1)S(=O)(=O)c1ccc(-c2cnc(N)c(-c3ccc4c(=O)[nH]ccc4c3)c2)cc1: < 0.01 µM
Nc1ncc(-c2ccc(S(=O)(=O)N(CC(F)(F)F)C3CCC3)cc2)cc1-c1ccc2c(c1)CCNC2=O: < 0.05 µM
CN(CC(F)F)S(=O)(=O)c1ccc(-c2cnc(N)c(-c3ccc4c(c3)CCNC4=O)n2)cc1: < 0.05 µM
CCN(C)S(=O)(=O)c1ccc(-c2cnc(N)c(-c3ccc4c(c3)CCNC4=O)n2)cc1: < 0.01 µM
CN(C1CC1)S(=O)(=O)c1ccc(-c2cnc(N)c(-c3ccc4c(c3)C3(CC3)NC4=O)c2)cc1: < 0.01 µM
C[C@H]1CNc2cc(-c3cc(-c4ccc(S(=O)(=O)N(C)C5CC5)cc4)cnc3N)ccc2C(=O)N1: < 0.01 µM
CCC(=O)c1ccc(-c2cnc(N)c(-c3ccc4c(c3)CCNC4=O)n2)cc1: < 0.05 µM
CCCN(C)S(=O)(=O)c1ccc(-c2cnc(N)c(-c3ccc4c(c3)CCNC4=O)c2)nc1: < 0.01 µM

----------
IC50 by entry:
# tested-system: UniProt:Q13043
# Sequence (Q13043 1-487): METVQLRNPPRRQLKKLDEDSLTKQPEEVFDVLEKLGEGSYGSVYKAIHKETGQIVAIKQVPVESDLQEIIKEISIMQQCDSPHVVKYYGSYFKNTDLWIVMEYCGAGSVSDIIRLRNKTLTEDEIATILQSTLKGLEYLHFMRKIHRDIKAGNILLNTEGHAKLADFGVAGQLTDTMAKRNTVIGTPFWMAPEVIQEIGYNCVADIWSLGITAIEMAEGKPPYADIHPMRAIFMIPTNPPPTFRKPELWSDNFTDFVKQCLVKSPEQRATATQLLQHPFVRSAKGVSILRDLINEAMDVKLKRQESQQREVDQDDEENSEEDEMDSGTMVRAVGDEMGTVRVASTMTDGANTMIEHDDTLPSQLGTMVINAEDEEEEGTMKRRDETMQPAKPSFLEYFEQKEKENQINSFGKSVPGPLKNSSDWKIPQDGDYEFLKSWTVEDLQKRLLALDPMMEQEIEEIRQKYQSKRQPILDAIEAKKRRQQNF
# test-details: In vitro measurement of MST1 inhibition (Z′-Lyte kinase assay)
# Format: biochemical
# measurement-conditions: 50 μM ATP; read-out: IC50 (μM) 50 μM ATP
measure: IC50

Cn1cc(-c2cnc(N)c(-c3ccc4c(c3)CCNC4=O)n2)cn1: < 0.05 µM
N#CC1(c2ccc(-c3cnc(N)c(-c4ccc5c(c4)C4(CC4)NC5=O)n3)cc2)CC1: < 0.01 µM
NC(=O)c1ccc(-c2cc(-c3ccc(C(=O)c4ccccc4)cc3)cnc2N)cc1: < 0.15 µM
CC(C)Oc1cc(-c2nc(-c3ccc(S(=O)(=O)N(C)C4CC4)cc3)cnc2N)ccc1C(N)=O: < 0.01 µM
Nc1ncc(-c2ccc(S(=O)(=O)NC3CC3)c(F)c2)cc1-c1ccc2c(c1)CCNC2=O: < 0.01 µM
CN(C1CCC1)S(=O)(=O)c1ccc(-c2cnc(N)c(-c3ccc4c(c3)CCNC4=O)n2)cc1: < 0.01 µM
CN(C1CC1)S(=O)(=O)c1ccc(-c2cnc(N)c(-c3ccc4c(c3)OCCNC4=O)c2)cc1: < 0.01 µM
Nc1ncc(-c2ccc(S(F)(F)(F)(F)F)cc2)nc1-c1ccc2c(c1)CCNC2=O: < 0.05 µM
CN(C1CC1)S(=O)(=O)c1ccc(-c2cnc(N)c(-c3ccc4c(c3)C3(CC3)CNC4=O)n2)cc1: < 0.01 µM
Cc1ccc(-c2cnc(N)c(-c3ccc4c(c3)CCNC4=O)c2)s1: < 0.01 µM
CCN(C)S(=O)(=O)c1ccc(-c2cnc(N)c(-c3ccc4c(c3)CCNC4=O)n2)cc1: < 0.01 µM
NC(=O)c1ccc(-c2cc(-c3cn[nH]c3)cnc2N)cc1: < 0.15 µM
CN(C1CC1)S(=O)(=O)c1ccc(-c2cnc(N)c(-c3ccc4c(c3)NCCNC4=O)c2)cc1: < 0.01 µM
CCN(CC)S(=O)(=O)c1ccc(-c2cnc(N)c(-c3ccc4c(O)n[nH]c4c3)c2)cc1: < 0.15 µM
Nc1ncc(-c2ccc(C(=O)NCC(F)(F)F)s2)cc1-c1ccc2c(c1)CCNC2=O: < 0.05 µM
CCCOc1ccc(-c2cnc(N)c(-c3ccc(C(N)=O)cc3)c2)cc1: < 0.15 µM
N#CC1(c2ccc(-c3cnc(N)c(-c4ccc5c(c4)C4(CC4)NC5=O)n3)cc2)CCOCC1: < 0.01 µM
N#CCOc1ccc(-c2cnc(N)c(-c3ccc4c(c3)CCNC4=O)n2)cc1: < 0.05 µM
CC1CNc2cc(-c3nc(-c4ccc(S(=O)(=O)N(C)C5CC5)cc4)cnc3N)ccc2C(=O)N1 (stereo not shown): < 0.01 µM

----------
IC50 by entry:
# tested-system: MST1 (Homo sapiens, UniProt Q13043)
# test-details: In vitro measurement of MST1 inhibition (Z′-Lyte kinase assay)
# Assay type: biochemical
# measurement-conditions: 1 μM ATP; read-out: IC50 (μM) 1 μM ATP
measure: IC50

Nc1ncc(-c2ccc(S(=O)(=O)NC3CC3)cc2)nc1-c1ccc2c(c1)CCNC2=O: < 0.01 µM
N#CC1(c2ccc(-c3cnc(N)c(-c4ccc5c(c4)CCNC5=O)c3)cc2)CC1: < 0.05 µM
C[C@H]1COc2cc(-c3cc(-c4ccc(S(=O)(=O)N(C)C5CC5)cc4)cnc3N)ccc2C(=O)N1: < 0.05 µM
Nc1ncc(-c2ccc(S(=O)(=O)NC3CC3)cc2)cc1-c1ccc2c(c1)CCNC2=O: < 0.01 µM
C[C@H]1CNc2cc(-c3cc(-c4ccc(S(=O)(=O)NC5CC5)cc4)cnc3N)ccc2C(=O)N1: < 0.01 µM
CN(C1CCC1)S(=O)(=O)c1ccc(-c2cnc(N)c(-c3ccc4c(c3)CCNC4=O)n2)cc1: < 0.01 µM
[2H]C([2H])([2H])N(C1CC1)S(=O)(=O)c1ccc(-c2cnc(N)c(-c3ccc4c(c3)CCNC4=O)n2)cc1: < 0.01 µM
N#CC1(c2ccc(-c3cnc(N)c(-c4ccc5c(c4)CCNC5=O)n3)cc2)CCCC1: < 0.01 µM
CCN(C)S(=O)(=O)c1ccc(-c2cnc(N)c(-c3ccc4c(c3)CCNC4=O)n2)cc1C: < 0.01 µM
